This listing pairs molecules with measured log2FC (compound/DMSO).
# Test system: kinase protein levels in Jurkat cells
# ASSAY SUMMARY: TMT-labeled quantitative proteomics
# Type: cell-based, human
# CONDITION LABEL: protein TRBV12-3;TRBV12-4; Jurkat; 1 µM; set1.2
Give your answer as a number; write no unit.

Solved cases (3 shown):
# ITEM SMILES, MEASURED VALUE
rows = [
    ("Cc1ncsc1-c1ccc(CNC(=O)[C@@H]2C[C@@H](O)CN2C(=O)[C@@H](NC(=O)CCOCCOCCNC(=O)c2cc(Nc3cc(C4CC4)[nH]n3)nc(Nc3ccc(CC#N)cc3)n2)C(C)(C)C)cc1", 0.03953),
    ("Cc1ncsc1-c1ccc(CNC(=O)[C@@H]2C[C@@H](O)CN2C(=O)[C@@H](NCCOCCOCCOCCOCCC(=O)N2CCN(c3ccc(Nc4ncc(Cl)c(Nc5ccccc5C(N)=O)n4)cc3)CC2)C(C)(C)C)cc1", -0.03811),
    ("Cc1ncsc1-c1ccc(CNC(=O)[C@@H]2C[C@@H](O)CN2C(=O)[C@@H](NC(=O)CCOCCOCCOCCOCCN2CCN(c3ccc(Nc4ncc(Cl)c(Nc5ccccc5C(N)=O)n4)cc3)CC2)C(C)(C)C)cc1", 0.04941),
]

Specify measured log2FC (compound/DMSO) for Cc1ncsc1-c1ccc(CNC(=O)[C@@H]2C[C@@H](O)CN2C(=O)[C@@H](NC(=O)CCOCCOCCOCCN2CCN(c3cc(Nc4cc(C5CC5)[nH]n4)nc(Nc4ccc(CC#N)cc4)n3)CC2)C(C)(C)C)cc1 .
0.03022
